Data origin: ChEMBL document CHEMBL1177724

MEASUREMENT_LABEL: IC50 (nM)
// note: answer is a bare numeric in nM

Prompt line: Form field - read-out: IC50; system: Peroxisome proliferator-activated receptor gamma (Mus musculus, UniProt P37238); submitted item: CSc1nc(SCc2ccccc2)c(C(=O)O)c(SCc2ccccc2)n1
Sequence (P37238 whole entry): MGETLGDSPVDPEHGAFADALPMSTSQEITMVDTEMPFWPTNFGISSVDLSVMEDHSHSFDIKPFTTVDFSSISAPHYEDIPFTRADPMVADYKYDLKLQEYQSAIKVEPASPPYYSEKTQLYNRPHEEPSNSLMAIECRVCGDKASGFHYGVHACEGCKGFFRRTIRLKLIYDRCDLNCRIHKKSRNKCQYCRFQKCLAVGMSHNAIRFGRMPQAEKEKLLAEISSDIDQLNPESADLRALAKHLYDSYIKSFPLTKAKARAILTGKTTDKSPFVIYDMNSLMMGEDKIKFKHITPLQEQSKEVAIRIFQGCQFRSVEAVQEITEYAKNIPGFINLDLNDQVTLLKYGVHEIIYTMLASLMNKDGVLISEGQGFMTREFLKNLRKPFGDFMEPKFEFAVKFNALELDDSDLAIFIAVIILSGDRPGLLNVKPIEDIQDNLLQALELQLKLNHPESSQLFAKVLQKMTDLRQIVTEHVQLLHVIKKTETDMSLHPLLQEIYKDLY
Response line: 1770

* * *

MEASUREMENT_LABEL: pIC50
The quantity pIC50 is defined as the negative base-10 logarithm of the molar concentration.

Prompt line: Form field - read-out: pIC50; system: Peroxisome proliferator-activated receptor gamma (Homo sapiens); submitted item: CSc1nc(SCc2ccccc2)c(C(=O)O)c(SCc2ccccc2)n1
Sequence (P37231 whole entry): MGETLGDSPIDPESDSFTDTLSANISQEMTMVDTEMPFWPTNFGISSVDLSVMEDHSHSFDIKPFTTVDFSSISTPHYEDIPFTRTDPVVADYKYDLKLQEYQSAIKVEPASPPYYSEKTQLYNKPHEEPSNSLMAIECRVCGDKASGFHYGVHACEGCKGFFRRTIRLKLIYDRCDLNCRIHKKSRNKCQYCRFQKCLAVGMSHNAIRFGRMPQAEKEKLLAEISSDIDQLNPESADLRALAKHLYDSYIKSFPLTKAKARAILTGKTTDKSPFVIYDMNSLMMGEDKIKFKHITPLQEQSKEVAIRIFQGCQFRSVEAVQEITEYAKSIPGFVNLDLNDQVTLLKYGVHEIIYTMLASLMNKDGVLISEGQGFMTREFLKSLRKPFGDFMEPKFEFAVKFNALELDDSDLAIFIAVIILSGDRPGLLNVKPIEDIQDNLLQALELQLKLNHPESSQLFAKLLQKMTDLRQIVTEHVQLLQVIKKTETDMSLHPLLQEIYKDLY
Response line: 5.75

* * *

# ASSAY_DETAILS: Solubility in water
# Format: physicochemical
MEASUREMENT_LABEL: solubility (µg/mL)
// note: answer is a bare numeric in µg/mL

Prompt line: Which solubility value belongs to CSc1nc(SCc2ccccc2)c(C(=O)O)c(SCc2ccccc2)n1 ?
Response line: 43.7

* * *

# ASSAY_DETAILS: Volume of distribution in mouse at 1 mg/kg, iv
# Assay type: ADME, organism-based
# Design: dose 1 mg/kg, route intravenous
# APPLIED_CONDITIONS: in vivo
MEASUREMENT_LABEL: Vd (L/kg)
// note: answer is a bare numeric in L/kg

Prompt line: Which Vd value belongs to CSc1nc(SCc2ccccc2)c(C(=O)O)c(SCc2ccccc2)n1 ?
Response line: 0.12

* * *

MEASUREMENT_LABEL: EC50
Your answer should be a number followed by the unit of measure.

Prompt line: Form field - read-out: EC50; system: Peroxisome proliferator-activated receptor gamma (Rattus norvegicus); submitted item: CSc1nc(SCc2ccccc2)c(C(=O)O)c(SCc2ccccc2)n1
Sequence (O88275 whole entry): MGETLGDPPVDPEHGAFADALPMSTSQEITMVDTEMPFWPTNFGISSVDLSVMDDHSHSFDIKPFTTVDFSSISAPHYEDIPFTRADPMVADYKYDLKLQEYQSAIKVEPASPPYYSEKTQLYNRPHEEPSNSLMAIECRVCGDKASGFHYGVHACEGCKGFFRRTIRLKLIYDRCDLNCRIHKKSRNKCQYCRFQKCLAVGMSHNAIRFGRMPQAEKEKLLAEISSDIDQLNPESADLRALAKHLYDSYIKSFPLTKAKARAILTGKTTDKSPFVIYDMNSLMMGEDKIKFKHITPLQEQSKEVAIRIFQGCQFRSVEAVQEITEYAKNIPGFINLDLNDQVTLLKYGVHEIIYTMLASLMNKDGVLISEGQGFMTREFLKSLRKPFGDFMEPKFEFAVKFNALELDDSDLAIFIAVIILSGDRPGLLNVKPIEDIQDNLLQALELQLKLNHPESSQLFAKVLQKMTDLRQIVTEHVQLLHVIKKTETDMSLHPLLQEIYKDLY
Response line: 158 nM

* * *

# ASSAY_DETAILS: AUC in mouse at 1 mg/kg, po
# Format: ADME, organism-based
# Set-up: dose 1 mg/kg, route oral
# APPLIED_CONDITIONS: plasma
MEASUREMENT_LABEL: AUC (µg·h/mL)
// note: answer is a bare numeric in µg·h/mL

Prompt line: Which AUC value belongs to CSc1nc(SCc2ccccc2)c(C(=O)O)c(SCc2ccccc2)n1 ?
Response line: 3.17

* * *

# ASSAY_DETAILS: Half life in mouse at 1 mg/kg, iv
# Type: ADME, organism-based
# Set-up: dose 1 mg/kg, route intravenous
# APPLIED_CONDITIONS: in vivo
MEASUREMENT_LABEL: half-life (min)
// note: answer is a bare numeric in min

Prompt line: Which half-life value belongs to CSc1nc(SCc2ccccc2)c(C(=O)O)c(SCc2ccccc2)n1 ?
Response line: 45.6

* * *

# ASSAY_DETAILS: Plasma concentration in mouse at 1 mg/kg, iv after 10 mins
# Assay type: ADME, organism-based
# Set-up: dose 1 mg/kg, route intravenous
MEASUREMENT_LABEL: concentration at 10 min (ng/mL)
// note: answer is a bare numeric in ng/mL

Prompt line: Which concentration at 10 min value belongs to CSc1nc(SCc2ccccc2)c(C(=O)O)c(SCc2ccccc2)n1 ?
Response line: 6890

* * *

# ASSAY_DETAILS: Oral bioavailability in mouse at 1 mg/kg
# Type: ADME, organism-based
# APPLIED_CONDITIONS: in vivo
MEASUREMENT_LABEL: bioavailability (%)
// note: answer is a bare numeric in %

Prompt line: Which bioavailability value belongs to CSc1nc(SCc2ccccc2)c(C(=O)O)c(SCc2ccccc2)n1 ?
Response line: 35.8
